conditions: human gut metagenome, 24 h, 2 µM; also: call rule not given here
RESULT_TYPE: Bacterial Biotransformation

{"columns": ["COMPOUND", "RESULT_TYPE", "VALUE_OBSERVED"],
 "data": [
  ["CN1[C@@H]2CC[C@H]1C[C@@H](OC(=O)c1c[nH]c3ccccc13)C2", "Bacterial Biotransformation", "Compound NOT metabolized"],
  ["C[C@@H](c1ncncc1F)[C@](O)(Cn1cncn1)c1ccc(F)cc1F", "Bacterial Biotransformation", "Compound metabolized"],
  ["c1ccc2[nH]c(-c3cscn3)nc2c1", "Bacterial Biotransformation", "Compound metabolized"],
  ["CCCCC(=O)O[C@]1(C(=O)CO)[C@@H](C)C[C@H]2[C@@H]3CCC4=CC(=O)C=C[C@]4(C)[C@@]3(F)[C@@H](O)C[C@@]21C [BETAMETHASONE VALERATE]", "Bacterial Biotransformation", "Compound metabolized"],
  ["CCOc1ccc2nc(S(N)(=O)=O)sc2c1 [ETHOXZOLAMIDE]", "Bacterial Biotransformation", "Compound NOT metabolized"],
  ["CNCC[C@H](Oc1cccc2ccccc12)c1cccs1", "Bacterial Biotransformation", "Compound metabolized"],
  ["CC12CC3CC(C)(C1)CC(N)(C3)C2 [MEMANTINE]", "Bacterial Biotransformation", "Compound NOT metabolized"],
  ["COC(=O)[C@H](c1ccccc1Cl)N1CCc2sccc2C1.O=S(=O)(O)O [CLOPIDOGREL BISULFATE]", "Bacterial Biotransformation", "Compound metabolized"],
  ["CC(N)C12CC3CC(CC(C3)C1)C2 (stereo not given)", "Bacterial Biotransformation", "Compound NOT metabolized"],
  ["CN(C)C(=O)Oc1cccc([N+](C)(C)C)c1.[Br-] [NEOSTIGMINE BROMIDE]", "Bacterial Biotransformation", "Compound NOT metabolized"],
  ["CN1CCC(=C2c3ccccc3CC(=O)c3sccc32)CC1.O=C(O)/C=C/C(=O)O [KETOTIFEN FUMARATE]", "Bacterial Biotransformation", "Compound metabolized"],
  ["CN1CCC(OC(c2ccccc2)c2ccccc2)CC1", "Bacterial Biotransformation", "Compound NOT metabolized"],
  ["CCN1CCCC1CNC(=O)c1cc(S(=O)(=O)CC)c(N)cc1OC (stereo not given) [AMISULPRIDE]", "Bacterial Biotransformation", "Compound metabolized"],
  ["Cc1nc(Nc2ncc(C(=O)Nc3c(C)cccc3Cl)s2)cc(N2CCN(CCO)CC2)n1 [DASATINIB ANHYDROUS]", "Bacterial Biotransformation", "Compound metabolized"],
  ["C[C@]12CCC(=O)C=C1[C@@H]1C[C@@H]1[C@H]1[C@@H]3[C@@H]4C[C@@H]4[C@@]4(CCC(=O)O4)[C@@]3(C)CC[C@@H]12", "Bacterial Biotransformation", "Compound metabolized"]
]}
